Target: JAK2 (Homo sapiens (Human), UniProt O60674)
Sequence (O60674 849-1124): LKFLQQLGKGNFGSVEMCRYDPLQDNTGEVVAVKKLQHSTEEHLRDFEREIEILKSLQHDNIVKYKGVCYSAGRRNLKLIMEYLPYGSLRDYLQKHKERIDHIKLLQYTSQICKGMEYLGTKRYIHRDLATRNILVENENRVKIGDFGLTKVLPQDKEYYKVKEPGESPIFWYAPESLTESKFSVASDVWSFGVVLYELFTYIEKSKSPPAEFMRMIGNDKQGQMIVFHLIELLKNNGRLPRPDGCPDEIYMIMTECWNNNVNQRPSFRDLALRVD
Experiment: Purified kinase assay (Z'-LYTE), JAK2
Assay type: biochemical
Details: Table 1; read-out: JAK2 IC50
# IC50 per record follows

Take a look at these entries with their results.
CC(=O)N1CCN(c2ccc(Nc3cc(NCc4cccc(Cl)c4)c(C(N)=O)nn3)cc2)CC1; 0.1 to 1 µM
CS(=O)(=O)Cc1ccc(Nc2cc(NCc3cccc4ccsc34)c(C(N)=O)nn2)cc1; 0.1 to 1 µM
CC(C)n1cc(Nc2cc(NCc3cccc(F)c3)c(C(N)=O)nn2)cn1; 0.1 to 1 µM

Attention now turns to another entry.
### Prompt Notebook entry, JAK2 (Homo sapiens (Human), UniProt O60674) assay: IC50 of NC(=O)c1nnc(Nc2cccc(N3CCOCC3)n2)cc1NCc1cccc(F)c1 = ?
### Response > 1 µM

----------
Target: TYK2 (Homo sapiens (Human), UniProt P29597)
Sequence (P29597 897-1176): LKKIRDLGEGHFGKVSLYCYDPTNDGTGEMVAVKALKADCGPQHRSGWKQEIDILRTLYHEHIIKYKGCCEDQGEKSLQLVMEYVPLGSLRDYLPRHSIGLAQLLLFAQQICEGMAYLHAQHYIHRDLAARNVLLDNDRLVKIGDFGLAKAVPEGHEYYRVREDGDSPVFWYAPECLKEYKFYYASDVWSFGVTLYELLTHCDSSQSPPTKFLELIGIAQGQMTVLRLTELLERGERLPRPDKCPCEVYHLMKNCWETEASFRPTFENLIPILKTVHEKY
Test: Purified kinase assay (Z'-LYTE), TYK2
Type: biochemical
Conditions: Table 1; read-out: Tyk2 IC50
pIC50: −log10 of the molar value.
# pIC50 per record follows

CC(=O)N1CCN(c2ccc(Nc3cc(NC4(c5ccccc5)CC4)c(C(N)=O)nn3)cc2)CC1; < 6.00
CC(=O)N1CCN(c2ccc(Nc3cc(NCc4cccs4)c(C(N)=O)nn3)cc2)CC1; 6.00 to 7.00

### Prompt Recorded pIC50 for CCC(=O)N1CCN(c2ccc(Nc3cc(NCc4ccccc4F)c(C(N)=O)nn3)cc2)CC1 , please?
### Response 6.00 to 7.00

### Prompt Recorded pIC50 for Cn1cc(Nc2cc(NCc3cccc(F)c3)c(C(N)=O)nn2)cn1 , please?
### Response < 6.00

### Prompt Recorded pIC50 for CC(=O)N1CCN(c2ccc(Nc3cc(NCc4ccccc4C)c(C(N)=O)nn3)cc2)CC1 , please?
### Response 6.00 to 7.00

### Prompt Recorded pIC50 for CC(=O)N1CCN(c2ccc(Nc3cc(NCc4cccc(F)c4)c(C(N)=O)nn3)cc2)CC1 , please?
### Response 6.00 to 7.00

### Prompt Recorded pIC50 for Cc1cc(Nc2cc(NCc3cccc(F)c3)c(C(N)=O)nn2)ccc1C(=O)N(C)C , please?
### Response < 6.00

### Prompt Recorded pIC50 for COc1cccc(CNc2cc(Nc3ccc(N4CCN(C(C)=O)CC4)cc3)nnc2C(N)=O)c1 , please?
### Response < 6.00

----------
Biological target: JAK3 (Homo sapiens (Human))
Sequence (P52333 822-1111): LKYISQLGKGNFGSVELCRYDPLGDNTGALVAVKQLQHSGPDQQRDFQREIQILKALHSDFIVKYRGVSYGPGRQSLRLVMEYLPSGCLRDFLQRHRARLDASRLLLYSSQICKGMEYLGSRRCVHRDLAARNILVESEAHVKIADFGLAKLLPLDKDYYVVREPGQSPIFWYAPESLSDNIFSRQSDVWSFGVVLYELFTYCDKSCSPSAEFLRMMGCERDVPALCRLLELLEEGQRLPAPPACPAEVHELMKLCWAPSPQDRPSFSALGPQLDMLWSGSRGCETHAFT
Test: Purified kinase assay (Z'-LYTE), JAK3
Format: biochemical
Conditions: Table 1; read-out: JAK3 IC50
pIC50: −log10 of the molar value.
reported property: pIC50

Take a look at these entries with their results.
Cc1cc(Nc2cc(NCc3cccc(F)c3F)c(C(N)=O)nn2)ccc1C(=O)N1CCCC1 [Compound 42]; 8.00 to 9.00
CC(=O)Nc1cccc(Nc2cc(NCc3cccc(F)c3)c(C(N)=O)nn2)c1 [Compound 65]; 7.00 to 8.00
NC(=O)c1nnc(Nc2ccc(C(=O)N3CCOCC3)cc2)cc1NCc1cccc(F)c1 [Compound 80]; 7.00 to 8.00

Attention now turns to another entry.
### Prompt Notebook entry, JAK3 (Homo sapiens (Human)) assay: pIC50 of COC(=O)N(C)c1ccc(Nc2cc(NCc3cccc(F)c3F)c(C(N)=O)nn2)cc1 [Compound 45] = ?
### Response 7.00 to 8.00

----------
Molecular target: UniProtKB P23458
Sequence (P23458 875-1153): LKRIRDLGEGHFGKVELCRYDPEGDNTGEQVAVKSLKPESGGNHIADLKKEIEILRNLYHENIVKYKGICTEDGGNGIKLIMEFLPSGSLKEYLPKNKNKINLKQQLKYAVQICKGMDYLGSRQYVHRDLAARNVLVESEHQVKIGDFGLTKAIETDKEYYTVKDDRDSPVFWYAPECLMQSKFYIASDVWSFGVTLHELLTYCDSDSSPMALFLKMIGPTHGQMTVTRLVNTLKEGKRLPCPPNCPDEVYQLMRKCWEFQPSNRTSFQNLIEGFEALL
Assay: Purified kinase assay (Z'-LYTE), JAK1
Assay type: biochemical
Conditions: Table 1; read-out: JAK1 IC50
pIC50: −log10 of the molar value.
reported property: pIC50

Take a look at these entries with their results.
CC(=O)N1CCN(c2ccc(Nc3cc(NCC4CCC4)c(C(N)=O)nn3)cc2)CC1; < 6.00
C[S+]([O-])Cc1ccc(Nc2cc(NCc3cccc(F)c3)c(C(N)=O)nn2)cc1 (stereo not shown); 6.00 to 7.00
CCC(=O)N1CCN(c2ccc(Nc3cc(NCc4c(F)cccc4F)c(C(N)=O)nn3)cc2)CC1; 6.00 to 7.00
NC(=O)c1nnc(Nc2ccc(C(=O)N3CCCC3)cc2)cc1NCc1cc(F)cc(F)c1; 6.00 to 7.00
CCC(=O)N1CCN(c2ccc(Nc3cc(NCc4cccc(F)c4)c(C(N)=O)nn3)cc2)CC1; < 6.00

### Prompt Recorded pIC50 for CC(=O)N1CCN(c2ccc(Nc3cc(N[C@H](C)C(C)C)c(C(N)=O)nn3)cc2)CC1 , please?
### Response 6.00 to 7.00

### Prompt Recorded pIC50 for CC(=O)N1CCN(c2ccc(Nc3cc(NC(C)C)c(C(N)=O)nn3)cc2)CC1 , please?
### Response < 6.00

### Prompt Recorded pIC50 for CC(C)n1cc(Nc2cc(NCc3cccc4ccsc34)c(C(N)=O)nn2)cn1 , please?
### Response 6.00 to 7.00

### Prompt Recorded pIC50 for NC(=O)c1nnc(Nc2ccc(OCCN3CCCC3)cc2)cc1NCc1cccc(F)c1 , please?
### Response < 6.00

### Prompt Recorded pIC50 for NC(=O)c1nnc(Nc2cnn(CC3CC3)c2)cc1NCc1cccc(F)c1F , please?
### Response 6.00 to 7.00

----------
Biological target: JAK2 (Homo sapiens (Human), UniProt O60674)
Experiment: Purified kinase assay (Z'-LYTE), JAK2
Format: biochemical
Details: Table 1; read-out: JAK2 IC50
# IC50 per record follows

NC(=O)c1nnc(Nc2ccc(N3CCOCC3)cc2)cc1NCc1cc(F)ccc1F; 10 to 100 nM
NC(=O)c1nnc(Nc2ccc(N3CCNCC3)cc2)cc1NCC1CCC1; > 1000 nM

### Prompt Notebook entry, JAK2 (Homo sapiens (Human), UniProt O60674) assay: IC50 of CC(=O)N1CCN(c2ccc(Nc3cc(NCC4CCNCC4)c(C(N)=O)nn3)cc2)CC1 = ?
### Response > 1000 nM

----------
Target: JAK3 (Homo sapiens (Human))
Test: Purified kinase assay (Z'-LYTE), JAK3
Format: biochemical
Conditions: Table 1; read-out: JAK3 IC50
Method: JAK and TYK2 tyrosine phosphorylation activity is measured using the Z′-LYTE™ Technology developed by Invitrogen Corporation (Carlsbad, Calif.). For JAK1, JAK2 and JAK3 the Z′-LYTE™ Kinase Assay Kit-Tyr6 Peptide (part number PV4122) was used. […] The Z′-LYTE™ biochemical assay employs a fluorescence resonance energy transfer (FRET) coupled-enzyme format and is based on the differential sensitivity of phosphorylated and non-phosphorylated peptides to proteolytic cleavage. […]
pIC50: −log10 of the molar value.
reported property: pIC50

Take a look at these entries with their results.
CS(=O)(=O)Cc1ccc(Nc2cc(NCc3cc(F)ccc3F)c(C(N)=O)nn2)cc1; 8.00 to 9.00
CCn1cc(Nc2cc(NCc3cccc(F)c3F)c(C(N)=O)nn2)cn1; 7.00 to 8.00
NC(=O)c1nnc(Nc2ccc(N3CCOCC3)cc2)cc1NCc1cc(F)cc(F)c1; 7.00 to 8.00
CN(C(=O)C1CC1)c1ccc(Nc2cc(NCc3cccc(F)c3F)c(C(N)=O)nn2)cc1; 7.00 to 8.00
NC(=O)c1nnc(Nc2ccc(C(=O)N3CCCC3)cn2)cc1NCc1cccc(F)c1; 8.00 to 9.00
CC(C)CNc1cc(Nc2ccc(N3CCNCC3)cc2)nnc1C(N)=O; 6.00 to 7.00

Attention now turns to another entry.
### Prompt Recorded pIC50 for NC(=O)c1nnc(Nc2ccc(N3CCNCC3)cc2)cc1NC1CCCC1 , please?
### Response 6.00 to 7.00

----------
Molecular target: UniProtKB O60674
Assay: Purified kinase assay (Z'-LYTE), JAK2
Type: biochemical
Details: Table 1; read-out: JAK2 IC50
reported property: IC50

Take a look at these entries with their results.
CC(=O)N1CCN(c2ccc(Nc3cc(NCC4CCC4)c(C(N)=O)nn3)cc2)CC1; 100 to 1000 nM
NC(=O)c1nnc(Nc2ccc(N3CCOCC3)cc2)cc1NCc1c(F)cccc1F; 10 to 100 nM
NC(=O)c1nnc(Nc2cnn(CC3CC3)c2)cc1NCc1cccc2ccsc12; 10 to 100 nM

Attention now turns to another entry.
### Prompt Recorded IC50 for NC(=O)c1nnc(Nc2ccc(C(=O)N3CCCC3)cc2)cc1NCc1cccc(F)c1F , please?
### Response 100 to 1000 nM

----------
Target: JAK2 (Homo sapiens (Human), UniProt O60674)
Assay: Purified kinase assay (Z'-LYTE), JAK2
Assay type: biochemical
Settings: Table 1; read-out: JAK2 IC50
# IC50 per record follows

Take a look at these entries with their results.
CS(=O)(=O)Cc1cccc(Nc2cc(NCc3cccc(F)c3)c(C(N)=O)nn2)c1; > 1000 nM
CCC(=O)N1CCC(Cn2cc(Nc3cc(NCc4cccc5ccsc45)c(C(N)=O)nn3)cn2)CC1; 10 to 100 nM
CC(=O)N1CCN(c2ccc(Nc3cc(NCc4cccc5[nH]ccc45)c(C(N)=O)nn3)cc2)CC1; 10 to 100 nM
CCn1cc(Nc2cc(NCc3cccc(F)c3)c(C(N)=O)nn2)cn1; 100 to 1000 nM
Cc1cc(Nc2cc(NCc3cccc(F)c3)c(C(N)=O)nn2)ccc1N1CCOCC1; > 1000 nM
CCC(=O)N1CCN(c2ccc(Nc3cc(NCc4ccccc4F)c(C(N)=O)nn3)cc2)CC1; 100 to 1000 nM

### Prompt Recorded IC50 for NC(=O)c1nnc(Nc2ccc(N3CCOCC3)c(F)c2)cc1NCc1cccc(F)c1F , please?
### Response > 1000 nM

### Prompt Recorded IC50 for CCC(=O)N1CCN(c2ccc(Nc3cc(NCc4cccc5[nH]ccc45)c(C(N)=O)nn3)cc2)CC1 , please?
### Response 10 to 100 nM
